Biological target: T1, human IL-13 R130Q variant (R110Q of the mature chain) (human, UniProt P35225 35-146, Biotinylated on amines (NHS-LC-biotin, 4:1) in ELISA, panning and competition assays. The letters are unchanged.)
T1 construct: R130Q counts from Met 1 of the signal peptide, R110Q on the mature chain; Bought from Peprotech; also called IL-13 R110Q; b-R130Q
T1 sequence (P35225 35-146 limits assumed, stated change not applied): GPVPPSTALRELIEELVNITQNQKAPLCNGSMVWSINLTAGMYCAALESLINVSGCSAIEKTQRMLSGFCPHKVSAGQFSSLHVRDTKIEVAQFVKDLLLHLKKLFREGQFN
Test: single-point (10 nM) phage Fab ELISA on biotinylated IL-13 R130Q
Consider the following binders and their measured Signal (% of Lc16Hc7) readings.
Write down the numeric answer in % and omit the unit.

Binder | Readout label | U | Readout value
Fab clone 1F04 (IL-13-62 library) (Fab, V domains shown, Fab on phage pIX) VH: QVTLKESGPVLVKPTETLTLTCTVSGFSLSTYGMGVGWIRQPPGKALEWLAHIWWDDVKRYNPALKSRLTISKDTSKSQVVLTMTNMDPVDTATYYCARMGSDYDVWFDYWGQGTLVTVSS VL: EIVLTQSPATLSLSPGERATLSCRASKSISKYLAWYQQKPGQAPRLLIYSGSTLQSGIPARFSGSGSGTDFTLTISSLEPEDFAVYYCQQHSSGPYTFGQGTKLEIK | Signal (% of Lc16Hc7) | % | 108
Fab clone 1H12 (IL-13-62 library) (Fab, V domains shown, Fab on phage pIX) VH: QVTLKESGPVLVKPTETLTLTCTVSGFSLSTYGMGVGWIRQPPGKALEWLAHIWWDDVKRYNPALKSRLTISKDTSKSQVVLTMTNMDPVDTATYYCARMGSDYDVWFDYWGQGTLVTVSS VL: EIVLTQSPATLSLSPGERATLSCRASKSISKYLAWYQQKPGQAPRLLIYSGSTLQSGIPARFSGSGSGTDFTLTISSLEPEDFAVYYCQQHDLGPYTFGQGTKLEIK | Signal (% of Lc16Hc7) | % | 111

binder Fab clone 2B07 (IL-13-62 library) (Fab, V domains shown, Fab on phage pIX) VH: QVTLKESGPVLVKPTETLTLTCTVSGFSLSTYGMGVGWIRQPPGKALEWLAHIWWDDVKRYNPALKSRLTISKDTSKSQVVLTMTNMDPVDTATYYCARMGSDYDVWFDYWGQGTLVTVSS VL: EIVLTQSPATLSLSPGERATLSCRASKSISKYLAWYQQKPGQAPRLLIYSGSTLQSGIPARFSGSGSGTDFTLTISSLEPEDFAVYYCQQHDWGPYTFGQGTKLEIK , Signal (% of Lc16Hc7) observed: 144

The measurements presented in this section are drawn from patent US20120045438A1.
